Here, each record is paired with measured IC50 data.
Biological target: Prostaglandin E2 receptor EP3 subtype (Homo sapiens, UniProt P43115)
Sequence (P43115 whole entry): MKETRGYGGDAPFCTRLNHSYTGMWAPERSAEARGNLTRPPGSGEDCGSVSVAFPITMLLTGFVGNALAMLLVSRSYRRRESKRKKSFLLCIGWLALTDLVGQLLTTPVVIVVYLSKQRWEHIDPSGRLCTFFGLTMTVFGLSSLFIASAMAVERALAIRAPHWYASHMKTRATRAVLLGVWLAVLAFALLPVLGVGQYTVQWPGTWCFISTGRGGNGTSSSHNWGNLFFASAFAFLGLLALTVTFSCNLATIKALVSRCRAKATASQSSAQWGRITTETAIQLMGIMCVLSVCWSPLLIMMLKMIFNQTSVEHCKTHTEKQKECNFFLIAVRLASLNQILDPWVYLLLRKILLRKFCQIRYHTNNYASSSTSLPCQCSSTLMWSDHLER
Assay: Antagonist activity at human EP3 expressed in CHO cells assessed as suppression of sulprostone-induced inhibition of forskolin induced cAMP production measured after 30 mins by HTR-FRET assay
Property: IC50

>>> endpoint_result("C/C(=C1/OC(=O)NC1=O)C(c1ccc(-c2ccc3cccc(F)c3c2)[nH]c1=O)C(C)C (configuration not stated)")
"0.039 µM"
>>> endpoint_result("CCn1nc(C)c2ccc(-c3ccc(C(/C=C4\\OC(=O)NC4=O)(CC)CC)c(=O)[nH]3)cc21")
"18 µM"
>>> endpoint_result("CCn1ncc2c(F)c(-c3ccc(C(/C=C4\\OC(=O)NC4=O)(CC)CC)c(=O)[nH]3)ccc21")
"> 20 µM"
>>> endpoint_result("CCn1cc2c(F)c(-c3ccc(C(/C=C4\\OC(=O)NC4=O)(CC)CC)c(=O)[nH]3)ccc2n1")
"> 20 µM"
>>> endpoint_result("CCC(/C=C1\\OC(=O)NC1=O)(CC)c1ccc(-c2ccc3c(c2)OC(C)(C)CC3)[nH]c1=O")
"> 20 µM"
>>> endpoint_result("CCn1ncc2cc(C)c(-c3ccc(C(/C=C4\\OC(=O)NC4=O)(CC)CC)c(=O)[nH]3)cc21")
"> 20 µM"
>>> endpoint_result("CC(C)/C(=C1/OC(=O)NC1=O)c1ccc(-c2ccc3cccc(F)c3c2)[nH]c1=O")
"1.3 µM"

---

Assay: Apparent permeability across apical to basolateral side in dog MDCK cells
Assay type: ADME, cell-based, Canis lupus familiaris
Property: Papp A→B (×10⁻⁶ cm/s)

>>> endpoint_result("CC(C)[C@@H](c1ccc(-c2ccc3cccc(F)c3c2)[nH]c1=O)[C@H]1OC(=O)NC1=O (relative stereo)")
9.14
>>> endpoint_result("CC(C)[C@H](C[C@H]1SC(=O)NC1=O)c1ccc(-c2ccc3cccc(F)c3c2)[nH]c1=O (relative stereo)")
17.6
>>> endpoint_result("CC(C)[C@@H](C[C@H]1SC(=O)NC1=O)c1ccc(-c2ccc3cccc(F)c3c2)[nH]c1=O (relative stereo)")
25.5
>>> endpoint_result("CC(C)C(/C=C1\\OC(=O)NC1=O)c1ccc(-c2ccc3cccc(F)c3c2)[nH]c1=O (stereo not drawn)")
9.9
>>> endpoint_result("CC(C)[C@@H](c1ccc(-c2ccc3cccc(F)c3c2)[nH]c1=O)[C@@H]1OC(=O)NC1=O (relative stereo)")
3.15
>>> endpoint_result("CC(C)[C@H](C[C@@H]1OC(=O)NC1=O)c1ccc(-c2ccc3cccc(F)c3c2)[nH]c1=O (relative stereo)")
10.8
>>> endpoint_result("CC(C)C(/C=C1\\NC(=O)NC1=O)c1ccc(-c2ccc3cccc(F)c3c2)[nH]c1=O (stereo not drawn)")
12.3
>>> endpoint_result("CC(C)C(/C=C1/C(=O)NC(=O)N1C)c1ccc(-c2ccc3cccc(F)c3c2)[nH]c1=O (stereo not drawn)")
14.1

---

Target: Prostaglandin E2 receptor EP3 subtype (Homo sapiens, UniProt P43115)
Test: Antagonist activity at human EP3 expressed in CHO cells assessed as suppression of sulprostone-induced inhibition of forskolin induced cAMP production measured after 30 mins by HTR-FRET assay
pIC50: −log10 of the molar value.
Criterion: pIC50 meeting or surpassing 7. Met: criterion met. Not met: criterion not met.

>>> label("O=C1NC(=O)/C(=C/C2(c3ccc(-c4ccc5cccc(F)c5c4)[nH]c3=O)CC2)O1")
"criterion met"
>>> label("CC(C)[C@@H](c1ccc(-c2ccc3cccc(F)c3c2)[nH]c1=O)[C@@H]1OC(=O)NC1=O (relative stereo)")
"criterion not met"
>>> label("CC(C)/C(=C1\\C(=O)NC(=O)N1C)c1ccc(-c2ccc3cccc(F)c3c2)[nH]c1=O")
"criterion not met"
>>> label("CC(C)[C@H](C[C@@H]1OC(=O)NC1=O)c1ccc(-c2ccc3cccc(F)c3c2)[nH]c1=O (relative stereo)")
"criterion met"
>>> label("CCC(/C=C1\\OC(=O)NC1=O)(CC)c1ccc(-c2ccc3cc(F)cc(F)c3c2)[nH]c1=O")
"criterion met"
>>> label("CC(C)[C@H](C[C@H]1OC(=O)NC1=O)c1ccc(-c2ccc3cccc(F)c3c2)[nH]c1=O (relative stereo)")
"criterion met"

---

Test: Metabolic stability in human liver microsomes assessed as intrinsic clearance half life
Format: ADME, Microsome
Property: half-life

>>> endpoint_result("O=C1NC(=O)/C(=C/C(c2ccc(-c3ccc4cccc(F)c4c3)[nH]c2=O)C2CCCC2)O1 (stereo not drawn)")
"1.21 h"
>>> endpoint_result("CCC(/C=C1\\OC(=O)NC1=O)(CC)c1ccc(-c2ccc3cccc(C(F)(F)F)c3c2)[nH]c1=O")
"0.353 h"
>>> endpoint_result("Cc1cc(C(/C=C2\\OC(=O)NC2=O)C(C)C)c(=O)[nH]c1-c1ccc2cccc(F)c2c1 (stereo not drawn)")
"> 3 h"
>>> endpoint_result("CC(C)[C@H](C[C@H]1OC(=O)NC1=O)c1ccc(-c2ccc3cccc(F)c3c2)[nH]c1=O (relative stereo)")
"1.68 h"
>>> endpoint_result("CC(C)C(c1ccc(-c2ccc3cccc(F)c3c2)[nH]c1=O)C1C(=O)NC(=O)N1C (stereo not drawn)")
"0.375 h"
>>> endpoint_result("CC(C)C(/C=C1/C(=O)NC(=O)N1C)c1ccc(-c2ccc3cccc(F)c3c2)[nH]c1=O (stereo not drawn)")
"> 3 h"
>>> endpoint_result("CC(C)C(/C=C1\\NC(=O)NC1=O)c1ccc(-c2ccc3cccc(F)c3c2)[nH]c1=O (stereo not drawn)")
"> 3 h"
>>> endpoint_result("O=C1NC(=O)/C(=C/C(c2ccc(-c3ccc4cccc(F)c4c3)[nH]c2=O)C2CC2)O1 (stereo not drawn)")
"1.98 h"
>>> endpoint_result("CC(C)C(CC1NC(=O)NC1=O)c1ccc(-c2ccc3cccc(F)c3c2)[nH]c1=O (stereo not drawn)")
"1.59 h"
>>> endpoint_result("CC(C)C(c1ccc(-c2ccc3cccc(F)c3c2)[nH]c1=O)C1SC(=O)NC1=O (stereo not drawn)")
"1.87 h"
>>> endpoint_result("CC(C)[C@@H](/C=C1\\OC(=O)NC1=O)c1ccc(-c2ccc3cccc(F)c3c2)[nH]c1=O")
"> 3 h"
>>> endpoint_result("O=C1NC(=O)/C(=C/C(c2ccccc2)c2ccc(-c3ccc4cccc(F)c4c3)[nH]c2=O)O1 (stereo not drawn)")
"2.1 h"
>>> endpoint_result("CCn1ncc2c(F)cc(-c3ccc(C(/C=C4\\OC(=O)NC4=O)(CC)CC)c(=O)[nH]3)cc21")
"> 3 h"
>>> endpoint_result("CC(C)[C@@H](c1ccc(-c2ccc3cccc(F)c3c2)[nH]c1=O)[C@H]1OC(=O)NC1=O (relative stereo)")
"> 3 h"
>>> endpoint_result("CC(C)[C@H](C[C@@H]1OC(=O)NC1=O)c1ccc(-c2ccc3cccc(F)c3c2)[nH]c1=O (relative stereo)")
"2.07 h"
>>> endpoint_result("CC(C)(/C=C1\\OC(=O)NC1=O)c1ccc(-c2ccc3cccc(F)c3c2)[nH]c1=O")
"1.89 h"
>>> endpoint_result("O=C1NC(=O)/C(=C/C(Cc2ccccc2)c2ccc(-c3ccc4cccc(F)c4c3)[nH]c2=O)O1 (stereo not drawn)")
"1.3 h"
>>> endpoint_result("C/C(=C1/OC(=O)NC1=O)C(c1ccc(-c2ccc3cccc(F)c3c2)[nH]c1=O)C(C)C (stereo not drawn)")
"> 3 h"

---

Experiment: Clearance in Sprague-Dawley rat at 2 mg/kg, iv measured up to 24 hrs by LC-MS/MS analysis
Format: ADME, organism-based
Conditions: in vivo
Property: clearance (mL/min/kg)

>>> endpoint_result("CCn1ncc2c(F)cc(-c3ccc(C(/C=C4\\OC(=O)NC4=O)(CC)CC)c(=O)[nH]3)cc21")
0.93
>>> endpoint_result("C/C(=C1/OC(=O)NC1=O)C(c1ccc(-c2ccc3cccc(F)c3c2)[nH]c1=O)C(C)C (stereo not drawn)")
15.6
>>> endpoint_result("CC(C)C(/C=C1\\OC(=O)NC1=O)c1ccc(-c2ccc3cccc(F)c3c2)[nH]c1=O (stereo not drawn)")
1.06

---

Experiment: Apparent permeability across apical to basolateral side in dog MDCK cells
Assay type: ADME, cell-based, Canis lupus familiaris
Here, each record is paired with measured Papp A→B data.
Property: Papp A→B (×10⁻⁶ cm/s)

>>> endpoint_result("CC(C)C(CC1C(=O)NC(=O)N1C)c1ccc(-c2ccc3cccc(F)c3c2)[nH]c1=O (configuration not stated)")
17.6
>>> endpoint_result("CC(C)/C(=C1\\C(=O)NC(=O)N1C)c1ccc(-c2ccc3cccc(F)c3c2)[nH]c1=O")
6.85
>>> endpoint_result("CC(C)/C(=C1/SC(=O)NC1=O)c1ccc(-c2ccc3cccc(F)c3c2)[nH]c1=O")
22.9
>>> endpoint_result("CC(C)C(c1ccc(-c2ccc3cccc(F)c3c2)[nH]c1=O)C1SC(=O)NC1=O (configuration not stated)")
26.3
>>> endpoint_result("CC(C)C(CC1NC(=O)NC1=O)c1ccc(-c2ccc3cccc(F)c3c2)[nH]c1=O (configuration not stated)")
17.1
>>> endpoint_result("CC(C)[C@H](C[C@H]1OC(=O)NC1=O)c1ccc(-c2ccc3cccc(F)c3c2)[nH]c1=O (relative stereo)")
10.3
>>> endpoint_result("CC(C)C(/C=C1\\SC(=O)NC1=O)c1ccc(-c2ccc3cccc(F)c3c2)[nH]c1=O (configuration not stated)")
15.4

From: ChEMBL document CHEMBL4680377
